- PROTOCOL: Stability of the analytes in rat plasma samples under storage conditions
- Format: physicochemical
- RECORDED CONDITIONS: spiked concentration 320 ng/mL, n = 6
MEASURED METRIC: Measured, -80°C for 7 days (ng/mL)

O=c1c(O)c(-c2ccc(O)c(O)c2)oc2cc(O[C@@H]3O[C@H](CO)[C@@H](O)[C@H](O)[C@H]3O)cc(O)c12 [Quercetin-7-O-β-D-glucoside, quercetin-7-O-β-D-glucoside]	296.81
COc1ccc(-c2cc(=O)c3c(O)cc(O)cc3o2)cc1	284.83
COc1c(O[C@@H]2O[C@H](C(=O)O)[C@@H](O)[C@H](O)[C@H]2O)cc(O)c2c(=O)cc(-c3ccccc3)oc12 [Wogonoside, wogonoside]	287.53
O=c1cc(-c2ccc(O)cc2)oc2cc(O)cc(O)c12	288.58
COc1c(O)cc2oc(-c3ccc(O)cc3)cc(=O)c2c1O	280.72
O=c1cc(-c2ccc(O)cc2)oc2cc(O)c(O)c(O)c12	296.10
O=c1c(O)c(-c2ccc(O)c(O)c2)oc2cc(O)cc(O)c12	285.05

This collection of values is drawn from paper PMC12589998.
